- TARGET OF ASSAY: hGlyT-2 (Homo sapiens)
- Sequence (Q9Y345 whole entry): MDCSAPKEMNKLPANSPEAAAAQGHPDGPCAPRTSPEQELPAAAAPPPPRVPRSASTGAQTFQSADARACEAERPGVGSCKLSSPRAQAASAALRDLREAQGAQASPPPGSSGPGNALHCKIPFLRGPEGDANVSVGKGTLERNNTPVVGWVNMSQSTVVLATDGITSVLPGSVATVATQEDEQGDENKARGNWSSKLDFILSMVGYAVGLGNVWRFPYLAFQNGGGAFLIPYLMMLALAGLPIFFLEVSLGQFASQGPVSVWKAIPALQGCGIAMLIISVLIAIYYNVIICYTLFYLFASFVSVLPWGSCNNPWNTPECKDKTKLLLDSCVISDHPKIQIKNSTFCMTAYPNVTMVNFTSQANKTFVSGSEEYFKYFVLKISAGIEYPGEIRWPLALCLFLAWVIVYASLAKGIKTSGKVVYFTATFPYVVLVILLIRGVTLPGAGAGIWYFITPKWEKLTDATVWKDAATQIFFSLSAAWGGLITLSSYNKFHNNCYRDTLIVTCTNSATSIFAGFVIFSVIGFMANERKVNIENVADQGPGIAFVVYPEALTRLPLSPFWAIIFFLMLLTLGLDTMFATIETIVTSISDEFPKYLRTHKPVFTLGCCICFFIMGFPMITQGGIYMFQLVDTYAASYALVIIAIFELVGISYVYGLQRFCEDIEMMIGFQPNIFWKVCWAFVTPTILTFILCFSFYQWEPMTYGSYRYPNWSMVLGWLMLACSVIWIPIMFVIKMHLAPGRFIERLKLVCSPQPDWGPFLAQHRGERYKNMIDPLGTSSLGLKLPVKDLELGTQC
- TEST METHOD NOTES: Glycine uptake assay, CHO cells stably transfected with hGlyT-2
- TEST CONDITIONS: [3H]-glycine 30 μM, 37° C., 10 minutes, read-out: Inhibition of glycine transport by hGlyT-2 IC50
Note to self: IC50 under 30 nM means Condition met, ties and anything higher get Condition not met.

Q: Is 30 nM strictly greater than the compound's reported IC50? compound: COc1cc(C(=O)NCC2(N(C)C)CCCC2)cc(OC)c1OC(C)c1ccccc1 (stereo not drawn)
Ans: Condition not met

Q: Quick check: IC50 of COc1cc(C(=O)NCC2(N(C)C)CCCCC2)cc(OC)c1OCC1CCCCC1 under 30 nM?
Ans: Condition not met

Q: Decide: IC50 of Cc1cc(C(=O)NCC2(N(C)C)CCCC2)cc(C)c1OCc1ccccc1 strictly below 30 nM?
Ans: Condition met

Q: Confirm or reject: IC50 of COc1cc(C(=O)NCC2(N(C)C)CCCCC2)cc(OC)c1OCc1ccccc1 lies strictly below 30 nM
Ans: Condition not met

Q: Input Cc1cc(C(=O)NCC2(N(C)C)CCCC2)cc(C)c1OCc1ccsc1 ; condition: IC50 strictly below 30 nM. Does it hold?
Ans: Condition not met
